test.target: human CD3 expressed on cells (Jurkat cells; human T-cells of PBMC) (human, UniProt P09693 23-182; P20963 22-164)
Sequence (chain, as listed by the source, chain 1 of 4): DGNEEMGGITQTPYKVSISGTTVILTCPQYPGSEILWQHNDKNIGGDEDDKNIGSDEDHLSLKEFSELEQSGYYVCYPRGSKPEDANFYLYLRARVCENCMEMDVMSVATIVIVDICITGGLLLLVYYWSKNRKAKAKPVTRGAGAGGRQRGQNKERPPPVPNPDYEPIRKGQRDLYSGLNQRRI
Sequence (chain, as listed by the source, chain 2 of 4): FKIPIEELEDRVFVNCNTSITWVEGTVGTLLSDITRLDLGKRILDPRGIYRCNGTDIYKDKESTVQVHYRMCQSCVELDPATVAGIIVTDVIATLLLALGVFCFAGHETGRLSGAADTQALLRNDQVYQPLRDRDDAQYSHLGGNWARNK
Sequence (P09693 23-182, chain 3 of 4): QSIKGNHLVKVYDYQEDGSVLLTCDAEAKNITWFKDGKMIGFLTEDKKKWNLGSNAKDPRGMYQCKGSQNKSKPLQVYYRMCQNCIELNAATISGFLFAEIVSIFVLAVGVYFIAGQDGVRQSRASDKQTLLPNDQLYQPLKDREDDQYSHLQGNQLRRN
Sequence (P20963 22-164, chain 4 of 4): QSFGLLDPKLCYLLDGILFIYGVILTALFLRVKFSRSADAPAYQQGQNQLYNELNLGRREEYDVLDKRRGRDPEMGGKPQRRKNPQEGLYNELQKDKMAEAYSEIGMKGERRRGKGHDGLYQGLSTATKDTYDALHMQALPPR
experiment.notes: cell-based or functional assay
measure.name: U937 Cytotoxicity Human T-cells (pM)
All answers are understood in pM, so give the number only.

Known results for binders:
1) H1H5758B (antibody, human IgG1, V domains shown, H1H: human IgG1 Fc) VH: EVQLVESGGGVVQPGRSLRLSCAASGFTFSSYGMHWVRQAPGKGLEWVTVILHDGSNRYYADSVKGRFTISRDNSKNTLYLQMNILRAEDTAVYYCTKGAMVRGVPYNHYYGMDVWGQGTTVTVSS VL: DIVMTQSPSSLSASVGDRVTITCRASQGIRNDLGWYQQKPGKAPKRLIYAASNLQSGVPSRFSGSGSGTEFTLTISSLQPEDFATYYCLQHNSYPYTFGQGTKLEIKR: 88600
2) H1H5795B (antibody, human IgG1, V domains shown, H1H: human IgG1 Fc) VH: EVQLVESGAEVKKPGASVKVSCKTSGYSFIGYYIHWMRQAPGQGLEWMGWINPKSGVTNYAQRFQGRVTMTRDTSISTAYMELSRLKSDDTAVYFCARMGDGAVFDFWGQGTLVTVSS VL: DIQLTQSPSSLSASVGDRVTITCRASQRISSFLNWYQQKPGKVPKLLIYTASNLQNGVPSRFSGTGSGTDFTLTISSLQPEDFATYYCQQSYRTPLTFGGGTKVDIKR: 67.4
3) H1H5757B (antibody, human IgG1, V domains shown, H1H: human IgG1 Fc) VH: EVQLVESGGGVVQPGRSLRLSCAASGFTFSSYGMHWVRQAPGKGLEWVTVILHDGSNRYSADSVKGRFTISRDNSKNTLYLQMNILRVEDTAVYYCTKGAMVRGVPYNHYYGMDVWGQGTTVTVSS VL: DIQMTQSPSSLSASVGDRVTITCRASQGIRNDLGWYQQKPGKAPKRLIYAASILQSGVPSRFSGSGSGTEFTLTISSLQPEDFATYYCLQHNSYPYTFGQGTKLEIKR: 96.5
4) H1H5797B (antibody, human IgG1, V domains shown, H1H: human IgG1 Fc) VH: QVQLVQSGTEVKKPGASVKVSCKASGYTFTGYYMHWVRQAPGQGLEWMGWINPNSDVTNYAQKFQGRVTLTRDTSISTAYIDLSRLRSDDTAIYYCARMGDGAVFDYWGQGTLVTVSS VL: DIQMTQSPSSLSASVGDRVTITCRASQRISSYLNWYQQKPGKAPKVLISVASSLQSGVPSRFSGSGSGTDFTLTISSLQPEDFASYYCQQSYNTPLTFGGGTKVEIKR: 576

In one line, give reported U937 Cytotoxicity Human T-cells of the entry H1H5778P (antibody, human IgG1, V domains shown, H1H: human IgG1 Fc) VH: EVQLVESGGGLVQPGRSLRLSCVASGFTFADFTMHWVRQAPGKGLEWVSGISWNSNSIDYADSVKGRFTISRDNAKKSLFLQMSSLRAEDTALYYCVKDRSGYSRFYYGMDVWGQGTTVTVSS VL: EIVMTQSPATLSVSPGERAILSCRASQNINSNLAWYQQKPGQAPRLLIYGASTRATGVPARFSGSGSGTEFTLTIRSLQSEDFAVYYCQQYYNWPITFGHGTRLEIK .
0.341

Please give the documented U937 Cytotoxicity Human T-cells of H1H5781P (antibody, human IgG1, V domains shown, H1H: human IgG1 Fc) VH: EVQLVESGGGLVQPGRSLRLSCAASGFTFDDFTMHWVRQAPGKGLEWVSDISWNSGSIDYADSVKGRFTISRDNARNSLFLQMSSLRTEDTASYYCIKDKSGYGSYNYGLDVWGQGTTVTVSS VL: EIVLTQSPGTLSLSPGDRATLSCRASQSVSSIYLAWYQQKPGQAPRLLIHGASTRATGIPDRFSGSGSGTDFTLTISRLEPEDFALYYCHQRVSSPYTFGQGTKLEIK
1.83

Using known records, supply U937 Cytotoxicity Human T-cells for H1H5791B (antibody, human IgG1, V domains shown, H1H: human IgG1 Fc) VH: QVQLVESGAEVKKPGASVKVSCKTSGYTLSGYYMHWMRQAPGQGLEWMGWINPKSGVTNYAQKFQDRVAMTRDTSISTAYMELSRLRSDDTAVYYCARMGDGAVFDFWAQGTLVTVSS VL: DIQLTQSPSSLSASVGDRVTITCRASQRISSFLNWYQQKPGKAPKLLIYTASNLQNGVPSRFSGSGSGTDFTLTISSLQPEDFATYYCQQSYRTPLTFGGGTKLEIKR
80.1

Input H1H5790B (antibody, human IgG1, V domains shown, H1H: human IgG1 Fc) VH: EVQLVESGGGVVQPGRSLRLSCAASGFTFSYYGMHWVRQAPGKGLEWVAVISFDGKNKYYADSVMGRFTISRDNSKNTLYLQMNSLRAEDSAVFFCARSYDILTGYGAGYSYHYGMDVWGQGTTVTVSS VL: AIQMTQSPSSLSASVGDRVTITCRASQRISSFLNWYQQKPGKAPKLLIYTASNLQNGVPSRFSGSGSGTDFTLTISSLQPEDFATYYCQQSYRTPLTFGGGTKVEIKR , output reported U937 Cytotoxicity Human T-cells.
87.1

The reported measurements were obtained from patent US20190127480A1.
